Data provenance is ChEMBL document CHEMBL1139712.

# Assayed target: 5-hydroxytryptamine receptor 6 (Homo sapiens, UniProt P50406)
# Sequence (P50406 whole entry): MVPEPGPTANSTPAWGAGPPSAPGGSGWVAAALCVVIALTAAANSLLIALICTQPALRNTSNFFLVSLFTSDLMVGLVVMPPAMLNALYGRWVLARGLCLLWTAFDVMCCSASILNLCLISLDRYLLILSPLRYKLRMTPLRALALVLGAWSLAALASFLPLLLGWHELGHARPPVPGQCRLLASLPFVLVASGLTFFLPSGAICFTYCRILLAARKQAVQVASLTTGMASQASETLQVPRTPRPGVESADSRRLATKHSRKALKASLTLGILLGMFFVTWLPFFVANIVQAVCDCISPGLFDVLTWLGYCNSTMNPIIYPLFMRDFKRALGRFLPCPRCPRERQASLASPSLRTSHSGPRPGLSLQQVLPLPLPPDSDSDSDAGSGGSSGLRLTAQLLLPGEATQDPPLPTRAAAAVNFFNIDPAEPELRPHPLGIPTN
pKi: −log10 of the molar value.
Assign TRUE whenever pKi does not fall below 6; assign FALSE whenever it does.

- Molecular string: "CCN(CC)CCc1cn(S(=O)(=O)c2ccccc2)c2ccccc12"
  Class: "TRUE"
- Molecular string: "CCN(CC)CCc1c[nH]c2ccccc12"
  Class: "TRUE"
- Molecular string: "COc1ccc2[nH]cc(CCN(C)Cc3ccccc3)c2c1"
  Class: "TRUE"
- Molecular string: "COc1cccc2c1c(CCN(C)C)cn2S(=O)(=O)c1ccccc1"
  Class: "TRUE"
- Molecular string: "COc1ccc2c(CCN(C)C)cn(S(=O)(=O)c3ccccc3)c2c1"
  Class: "TRUE"
- Molecular string: "CN(C)CCc1cn2c3c(cccc13)-c1ccccc1S2(=O)=O"
  Class: "FALSE"
